- Test system: PPARg:RXRa IVT, anti-PPARg (NR concentration 270 nM, RXRa partner concentration 90 nM)
- assay_protocol: PBM binding z-score (relative to random genomic background probes); higher = stronger binding; sequences stand for … in GC…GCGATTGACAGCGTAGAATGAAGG
Please go through the items and note down their PBM binding z-score.
API doc: respond with a numeric literal and nothing else, no unit.

# input Please give the measured PBM binding z-score for this sequence: GTACCAAGGTGAATAGGTCGTTGCTGAGTAGGCG
# output 2.55

# input Can you look up the measured PBM binding z-score of CCTCGGAGGACAGCAGGTCAGAGCTGTCCGCTTT for me?
# output -0.162

# input Query (sequence): ATCTCTAGGTAAAAGTTCGGTGAATCCCGAGGAT ; field requested: PBM binding z-score
# output 2.74

# input Record request: PBM binding z-score value, item CCTATTAGTTGACAATAAGGGCAACCGAAGCTCG
# output 0.343

# input Sample TCTCGGAGGACCCGAAGGTCAGAGCTTTCCAGAG — what was its PBM binding z-score?
# output -0.16

# input Item GCTAGCAGGCCATTTGGGTCACTCAGTGACGGGC has what recorded PBM binding z-score?
# output 2.44

# input Would you mind telling me what PBM binding z-score value was observed for CGAACTAGGTCATTGACAGGACTGTGAATAGTAA ?
# output 8.16

# input // returns reported PBM binding z-score for input GCTGCTAGGTCAACTGATAGTCAGCTAAAGCTCG
# output 4.12

# input Name the reported PBM binding z-score value associated with the sequence GCTATTAGTTGAAAGGGCAACCGAATGATTCTCG
# output 1.11

# input Which PBM binding z-score reading was recorded for the sequence TATACAGGGTCAAGGGCCAGAGTACGAATGTCGA ?
# output 4.69

# input Look at this sequence and give its reported PBM binding z-score. ATATGTAGGTTATCGGGTCATTCGGTTTGCGCAT
# output 7.29

# input I would be grateful if you could share the reported PBM binding z-score for AGAATGAGGTTATTAAGATCAGCGAATTGCGGTC .
# output 2.5
